B1: ZNF449 (parent)
chain: EPHKCPECGKRFLRSSDLYRHQRL

- Variants of: B1
- Protocol summary: protein stability index of a GFP-peptide fusion (GPS, HEK-293T) (PSI 1-6); higher = more stable;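 note: lentivirally expressed fusions sorted by FACS into six bins by GFP to DsRed ratio, PSI derived from sequencing read proportions per bin multiplied by bin number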
- Test conditions: c terminus: a fixed tail appended
Respond with satisfied for protein stability index values of 3 and above, not satisfied for values below.

{"Mutation id": "G9K", "Label": "not satisfied"}
{"Mutation id": "Q22K", "Label": "satisfied"}
{"Mutation id": "S15K", "Label": "satisfied"}
{"Mutation id": "C5F", "Label": "not satisfied"}
{"Mutation id": "Q22D", "Label": "not satisfied"}
{"Mutation id": "C5V", "Label": "not satisfied"}
{"Mutation id": "S15Q", "Label": "satisfied"}
{"Mutation id": "E7R", "Label": "satisfied"}
{"Mutation id": "K4Q", "Label": "satisfied"}
{"Mutation id": "S15C", "Label": "satisfied"}
{"Mutation id": "F12I", "Label": "not satisfied"}
{"Mutation id": "H21E", "Label": "not satisfied"}
{"Mutation id": "Q22G", "Label": "not satisfied"}
{"Mutation id": "K10R", "Label": "satisfied"}
{"Mutation id": "F12M", "Label": "not satisfied"}
{"Mutation id": "C5K", "Label": "satisfied"}
{"Mutation id": "L24N", "Label": "satisfied"}
{"Mutation id": "F12W", "Label": "not satisfied"}
{"Mutation id": "S15D", "Label": "satisfied"}
{"Mutation id": "Q22M", "Label": "satisfied"}
{"Mutation id": "H21F", "Label": "not satisfied"}
{"Mutation id": "C5H", "Label": "satisfied"}
{"Mutation id": "F12L", "Label": "not satisfied"}
{"Mutation id": "S15P", "Label": "satisfied"}
{"Mutation id": "H21K", "Label": "not satisfied"}
{"Mutation id": "P2M", "Label": "satisfied"}
{"Mutation id": "S16H", "Label": "satisfied"}
{"Mutation id": "K4N", "Label": "satisfied"}
{"Mutation id": "K4M", "Label": "satisfied"}
{"Mutation id": "H3P", "Label": "satisfied"}
{"Mutation id": "R11H", "Label": "satisfied"}
{"Mutation id": "K4T", "Label": "satisfied"}
{"Mutation id": "R20F", "Label": "satisfied"}
{"Mutation id": "K4A", "Label": "satisfied"}
{"Mutation id": "G9T", "Label": "not satisfied"}
{"Mutation id": "H21P", "Label": "not satisfied"}
{"Mutation id": "R14M", "Label": "satisfied"}
{"Mutation id": "C5G", "Label": "not satisfied"}
{"Mutation id": "S15A", "Label": "satisfied"}
{"Mutation id": "L18Q", "Label": "not satisfied"}
{"Mutation id": "R11G", "Label": "satisfied"}
{"Mutation id": "K4D", "Label": "satisfied"}

The measurements presented in this section are drawn from the supplement of paper PMC10567573.
